test system: host cell proteins (HCP); experiment: Microtiter plate chromatography of resins, host cell proteins (bound); type: binding, CHO; settings: fraction of injected host cell proteins bound to resin

compound	HCP Bound (%)
COc1ccc(NC(=O)c2cn3ccsc3n2)cc1C(=O)NCCCCCC(=O)NCCOCCOCCN [Ligand L76]	9%
COc1ccc(NC(=O)c2nnc(-c3ccco3)o2)cc1C(=O)NCCOCCOCC(=O)NCCOCCOCC(=O)NCCCN [Ligand L67]	2%
Cn1nc(NC(=O)c2cccc(C(=O)NCCCN)c2)c2ccccc21 [Ligand L71]	25%
COc1ccc(NC(=O)c2cc(-c3ccco3)n(C)n2)cc1C(=O)NCCOCCOCC(=O)NCCOCCOCC(=O)NCCCN [Ligand L65]	11%
COc1ccc(NC(=O)c2cn3ccsc3n2)cc1C(=O)NCCOCCOCC(=O)NCCCCCCN [Ligand L78]	14%
NCCCNC(=O)c1cccc(C(=O)Nc2nnc(-c3ccco3)s2)c1 [Ligand L70]	19%
COc1ccc(NC(=O)c2cn3ccsc3n2)cc1C(=O)NCCCNC(=O)CCCCCN [Ligand L75]	18%
NCCCNC(=O)c1cccc(C(=O)Nc2nc3ccccc3s2)c1 [Ligand L72]	40%
COc1ccc(NC(=O)c2cn3ccsc3n2)cc1C(=O)NCCOCCOCC(=O)NCCCN [Ligand L77]	10%
COc1ccc(NC(=O)c2cn3ccsc3n2)cc1C(=O)NCCOCCOCCNC(=O)NCCOCCOCCN [Ligand L69]	2%
COc1ccc(NC(=O)c2cn3ccsc3n2)cc1C(=O)NCCOCCOCC(=O)NCCOCCOCC(=O)NCCCN [Ligand L66]	0%
COc1ccc(NC(=O)c2cc(-c3csc(C)n3)on2)cc1C(=O)NCCOCCOCC(=O)NCCOCCOCC(=O)NCCCN [Ligand L68]	4%
NCCCNC(=O)c1cccc(C(=O)Nc2ncc(-c3ccccc3)s2)c1 [Ligand L74]	53%
NCCCNC(=O)c1cccc(C(=O)Nc2nc(-c3ccccc3)cs2)c1 [Ligand L73]	52%

----------
system: human poly-IgG (h-poly-IgG); experiment: Microtiter plate chromatography of resins, human poly-IgG (bound, yield); format: binding
Reported h-poly-IgG Bound (%) values are given for each entry in this list.
endpoint label: h-poly-IgG Bound (%)

COc1ccc(NC(=O)c2nn(C)c3ccccc23)cc1C(=O)NCCCN 98%
COc1ccc(NC(=O)c2cc(-c3ccco3)n(C)n2)cc1C(=O)NCCCN 100%
COc1ccc(NC(=O)c2cn3ccsc3n2)cc1C(=O)NCCOCCOCC(=O)NCCCC[C@H](NC(=O)COCCOCCNC(=O)c1cc(NC(=O)c2cn3ccsc3n2)ccc1OC)C(=O)NCCCN 91%
COc1ccc(NC(=O)c2nc(-c3ccco3)no2)cc1C(=O)NCCCN 100%

----------
experiment: Alkaline stability in sodium hydroxide, LC-MS; assay type: physicochemical; conditions: 0.5 M sodium hydroxide solution; 0.5 M NaOH, 25° C., 8 days

compound	unit symbol	half-life
COc1ccc(NC(=O)c2cc(-c3ccco3)n(C)n2)cc1C(=O)NCCCN [Ligand L1]	days	12

----------
Entries annotated with measured Bevacizumab IgG Yield (%)
Target: Bevacizumab (Homo sapiens, UniProt P01857)
Construct: fused on or other part: humanised anti-VEGF-A VH domain N-terminal of the gamma-1 constant region (engineered, no UniProt entry)
Experiment: Microtiter plate chromatography of resins, Bevacizumab whole IgG (bound, yield, selectivity)
Type: binding, humanized
Settings: mass of whole IgG Bevacizumab eluted / mass injected
Experimental: Resins were assessed in packed mode by microtiter plate chromatography. For each column, approximately 30 μl of resin were transferred to a 384-well filter plate and sealed with appropriate top frits. Columns were equilibrated with 6.7 column volumes (cv) of phosphate buffered saline (0.15 M NaCl, 20 mM sodium phosphate, pH 7.3; PBS) prior to injection. […] Effluent fractions were collected in 384-well plates and concentrations of protein analyzed by Bradford assay. […]
endpoint label: Bevacizumab IgG Yield (%)

COc1ccc(NC(=O)c2cn3ncccc3n2)cc1C(=O)NCCCN 97
COc1ccc(NC(=O)c2cn3ccccc3n2)cc1C(=O)NCCCN 90
COc1ccc(NC(=O)c2n[nH]c3ccc(Cl)cc23)cc1C(=O)NCCCN 98
COc1ccc(NC(=O)c2cc(-c3ccco3)[nH]n2)cc1C(=O)NCCCN 96
COc1ccc(NC(=O)c2cc(-c3csc(C)n3)on2)cc1C(=O)NCCCN 92
